experiment: Half life in dog at 0.2 mg/kg, iv and 1 mg/kg, po; type: ADME, organism-based, Canis lupus familiaris; settings: in vivo
Observation type: half-life (h)

| Compound smiles | Observation type | Numeric readout |
| --- | --- | --- |
| Cc1cc2ccc1[C@@H](C)COC(=O)Nc1ccc(S(=O)(=O)C3CC3)c(c1)CN(C)C(=O)[C@@H]2Nc1cc2ccnc(N)c2cc1F | half-life | 6 |
| Cc1cc2ccc1[C@@H](C)COC(=O)Nc1ccc(S(=O)(=O)C3CC3)c(c1)CN(C)C(=O)[C@@H]2Nc1cc(F)c2c(N)nccc2c1 | half-life | 8 |
| Cc1cc2ccc1[C@@H](C)COC(=O)Nc1ccc(S(=O)(=O)C3CC3)c(c1)CN(C)C(=O)[C@@H]2Nc1ccc2c(N)ncc(F)c2c1 | half-life | 8 |

====

assay: Dissociation constant, pKa of the compound in methanol/water by spectrophotometric titration method; assay type: physicochemical
Observation type: pKa

| Compound smiles | pKa |
| --- | --- |
| Cc1cc2ccc1[C@@H](C)COC(=O)Nc1ccc(S(=O)(=O)C3CC3)c(c1)CN(C)C(=O)[C@@H]2Nc1ccc2c(N)ncc(F)c2c1 | 7.1 |
| Cc1cc2ccc1[C@@H](C)COC(=O)Nc1ccc(S(=O)(=O)C3CC3)c(c1)CN(C)C(=O)[C@@H]2Nc1ccc2c(N)nccc2c1 | 8.7 |
| Cc1cc2ccc1[C@@H](C)COC(=O)Nc1ccc(S(=O)(=O)C3CC3)c(c1)CN(C)C(=O)[C@@H]2Nc1cc(F)c2c(N)nccc2c1 | 8 |

====

assay: Half life in human liver microsomes; assay type: ADME
Observation type: half-life (h)

| Compound smiles | half-life (h) |
| --- | --- |
| Cc1cc2ccc1[C@@H](C)COC(=O)Nc1ccc(OC(F)(F)F)c(c1)CN(C)C(=O)[C@@H]2Nc1ccc2c(N)nccc2c1 | 2.17 |
| Cc1cc2ccc1[C@@H](C)COC(=O)Nc1ccc(S(=O)(=O)C3CC3)c(c1)CN(C)C(=O)[C@@H]2Nc1cc2ccnc(N)c2cc1F | 1.58 |

P = Cc1cc2ccc1[C@@H](C)COC(=O)Nc1ccc(S(=O)(=O)C3CC3)c(c1)CN(C)C(=O)[C@@H]2Nc1cc(F)c2c(N)nccc2c1
Q = Cc1cc2ccc1[C@@H](C)COC(=O)Nc1ccc(S(=O)(=O)C3CC3)c(c1)CN(C)C(=O)[C@@H]2Nc1ccc2c(N)ncc(F)c2c1
Incoming: Hi! Which is lower in terms of half-life, the first one P or the second one Q ? Your choice should be expressed through its label.
Outgoing: Q

====

assay: Oral bioavailability in dog at 1 mg/kg; type: ADME, organism-based, Canis lupus familiaris; conditions: in vivo
Observation type: bioavailability (%)

| Compound smiles | bioavailability (%) |
| --- | --- |
| Cc1cc2ccc1[C@@H](C)COC(=O)Nc1ccc(OC(F)(F)F)c(c1)CN(C)C(=O)[C@@H]2Nc1ccc2c(N)nccc2c1 | 22 |
| Cc1cc2ccc1[C@@H](C)COC(=O)Nc1ccc(S(=O)(=O)C3CC3)c(c1)CN(C)C(=O)[C@@H]2Nc1ccc2c(N)ncc(F)c2c1 | 40 |

I = Cc1cc2ccc1[C@@H](C)COC(=O)Nc1ccc(S(=O)(=O)C3CC3)c(c1)CN(C)C(=O)[C@@H]2Nc1cc(F)c2c(N)nccc2c1
II = Cc1cc2ccc1[C@@H](C)COC(=O)Nc1ccc(S(=O)(=O)C3CC3)c(c1)CN(C)C(=O)[C@@H]2Nc1ccc2c(N)nccc2c1
Incoming: Recorded bioavailability values differ for I and II ; which one is higher? Your choice should be expressed through its label.
Outgoing: I
(I: 24%, II: 1%)
